// provenance: paper PMC11352409

- measurement target: human P2X3 receptors (Homo sapiens)
- Construct: expressed in transfected cells
- Sequence (P56373 whole entry): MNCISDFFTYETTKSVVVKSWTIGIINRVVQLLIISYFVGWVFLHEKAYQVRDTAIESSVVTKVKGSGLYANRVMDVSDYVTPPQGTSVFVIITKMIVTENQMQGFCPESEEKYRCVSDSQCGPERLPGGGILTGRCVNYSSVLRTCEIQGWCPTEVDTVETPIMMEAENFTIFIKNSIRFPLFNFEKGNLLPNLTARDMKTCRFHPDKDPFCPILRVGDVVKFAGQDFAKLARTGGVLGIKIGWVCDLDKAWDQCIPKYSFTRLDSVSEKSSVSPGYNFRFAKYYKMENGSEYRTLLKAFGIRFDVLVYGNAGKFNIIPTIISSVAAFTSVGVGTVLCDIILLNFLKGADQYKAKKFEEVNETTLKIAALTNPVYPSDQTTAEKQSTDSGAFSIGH
- experiment: Whole-cell patch-clamp concentration-activation, HEK293 cells stably expressing hP2X3
- Assay type: cell-based
- condition info: hP2X3, relative to current at 100 µM ATP
measurement kind: Effect (Fold in ATP Efficacy) (fold)

Some entries whose results are on file:
COCC[N+]1=C(C=CC=C2N(CCCCCC(=O)NCCCCCCSc3nc(N)c4ncn(C5OC(COP(=O)(O)OP(=O)(O)OP(=O)(O)O)C(O)C5O)c4n3)c3ccc(S(=O)(=O)O)cc3C2(C)C)C(C)(C)c2cc(S(=O)(=O)[O-])ccc21 (stereo not shown) [fATP, 2-[DY-547P1]-AHT-ATP] ... 0.8
COCC[N+]1=C(C=CC=C2N(CCCCCC(=O)NCCCCCCSc3nc(N)c4ncn(C5OC(COP(=O)(O)CP(=O)(O)OP(=O)(O)O)C(O)C5O)c4n3)c3ccc(S(=O)(=O)O)cc3C2(C)C)C(C)(C)c2cc(S(=O)(=O)[O-])ccc21 (stereo not drawn) [α,βMe-fATP, 2-[DY-547P1]-AHT-α,βMe-ATP] ... 1.0

(A) Nc1ncnc2c1ncn2[C@@H]1O[C@H](COP(=O)(O)CP(=O)(O)OP(=O)(O)O)[C@@H](O)[C@H]1O [α,βMe-ATP, αβmethylene-ATP]
(B) Nc1ncnc2c1ncn2[C@@H]1O[C@H](COP(=O)(O)OP(=O)(O)OP(=O)(O)O)[C@@H](O)[C@H]1O [ATP]
Request: // which entry has the larger Effect (Fold in ATP Efficacy) value, A or B ? Answer by quoting the chosen item's label.
Result: A

----------
- measurement target: human P2X2 receptors (Homo sapiens)
- Sequence (Q9UBL9 1-404 isoform Q9UBL9-2): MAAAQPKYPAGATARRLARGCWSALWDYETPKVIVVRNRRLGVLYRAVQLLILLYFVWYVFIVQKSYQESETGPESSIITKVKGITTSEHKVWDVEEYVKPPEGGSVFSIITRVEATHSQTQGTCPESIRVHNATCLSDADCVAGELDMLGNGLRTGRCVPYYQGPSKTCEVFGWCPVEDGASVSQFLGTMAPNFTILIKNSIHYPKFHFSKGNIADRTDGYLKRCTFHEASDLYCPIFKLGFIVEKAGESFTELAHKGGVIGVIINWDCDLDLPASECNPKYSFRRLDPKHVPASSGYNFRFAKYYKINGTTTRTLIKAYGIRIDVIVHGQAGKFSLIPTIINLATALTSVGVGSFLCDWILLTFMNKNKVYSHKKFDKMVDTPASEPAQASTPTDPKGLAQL
- experiment: Whole-cell patch-clamp concentration-activation, HEK293 cells stably expressing hP2X2
- condition info: hP2X2, whole-cell, -50 mV, divalent-cation-free bath with 10 mM EGTA, normalised to 100 µM ATP
measurement kind: pEC50
Note on units: pEC50 is unitless, being -log10 of a concentration expressed in mol/L.

COCC[N+]1=C(C=CC=C2N(CCCCCC(=O)NCCCCCCSc3nc(N)c4ncn(C5OC(COP(=O)(O)OP(=O)(O)OP(=O)(O)O)C(O)C5O)c4n3)c3ccc(S(=O)(=O)O)cc3C2(C)C)C(C)(C)c2cc(S(=O)(=O)[O-])ccc21 (centres unmarked) [fATP, 2-[DY-547P1]-AHT-ATP] ... 5.34

# next compound below
Request: Form: Entry = Nc1ncnc2c1ncn2[C@@H]1O[C@H](COP(=O)(O)OP(=O)(O)OP(=O)(O)O)[C@@H](O)[C@H]1O | System = human P2X2 receptors (Homo sapiens) | pEC50 = ____
Result: 6.15
